Overview of recorded IC50 for various compounds
biological target: PSMA-expressing C4-2 cells (Homo sapiens); construct: PSMA-expressing C4-2 cells (ATCC, Cat. No. CRL-3314) were cultured in RPMI-1640; host or cells: C4-2 cells; assay: FACS binding assay (competition with 50 nM PSM-0183); settings: pIC50 category of FACS binding, C4-2 cells; read-out: pIC50 [C4-2] CAT (converted)
Sequence (Q04609 whole entry): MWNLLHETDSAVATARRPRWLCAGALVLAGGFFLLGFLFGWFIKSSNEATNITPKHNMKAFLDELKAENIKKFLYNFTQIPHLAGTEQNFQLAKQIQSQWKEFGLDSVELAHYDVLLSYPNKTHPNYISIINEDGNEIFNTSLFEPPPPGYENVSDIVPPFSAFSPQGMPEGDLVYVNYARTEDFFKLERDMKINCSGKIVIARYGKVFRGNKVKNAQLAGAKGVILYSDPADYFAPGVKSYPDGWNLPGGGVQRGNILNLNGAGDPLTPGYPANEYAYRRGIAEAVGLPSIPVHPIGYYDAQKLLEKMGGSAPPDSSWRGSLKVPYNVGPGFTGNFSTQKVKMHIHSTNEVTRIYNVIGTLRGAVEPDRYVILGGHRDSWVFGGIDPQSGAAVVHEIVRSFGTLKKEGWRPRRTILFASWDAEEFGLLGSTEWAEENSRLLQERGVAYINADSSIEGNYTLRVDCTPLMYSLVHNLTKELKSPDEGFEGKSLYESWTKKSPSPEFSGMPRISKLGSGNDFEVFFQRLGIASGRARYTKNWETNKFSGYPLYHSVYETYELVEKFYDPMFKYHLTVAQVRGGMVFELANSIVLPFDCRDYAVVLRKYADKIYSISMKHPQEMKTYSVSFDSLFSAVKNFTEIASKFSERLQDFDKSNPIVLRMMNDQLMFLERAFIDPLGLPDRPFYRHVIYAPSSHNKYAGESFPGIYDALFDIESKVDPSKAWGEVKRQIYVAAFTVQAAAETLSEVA
Bridge positions count the residues as written; N and C are the ends. Square brackets hold non-standard residues; d marks the D form. Peptide text beside a SMILES is read from it. * marks the point of attachment. NH(CH2)5NHDOTA = O=C(O)CN1CCN(CC(=O)O)CCN(CC(=O)NCCCCCN*)CCN(CC(=O)O)CC1; DOTA = O=C(O)CN1CCN(CC(=O)O)CCN(CC(=O)*)CCN(CC(=O)O)CC1; Tle = CC(C)(C)[C@H](N)C(=O)O; Aib = CC(C)(N)C(=O)O

| Compound | IC50 |
| --- | --- |
| C[C@@H](O)[C@H](NC(=O)[C@@H](NC(=O)[C@@H]1CSSC[C@H](NC(=O)[C@H](Cc2ccccc2)NC(=O)C(C)(C)NC(=O)CN2CCN(CC(=O)O)CCN(CC(=O)O)CCN(CC(=O)O)CC2)C(=O)N[C@@H](CCCCN)C(=O)N[C@@H](CCCNC(=N)N)C(=O)NC(C)(C)C(=O)N[C@@H](CC(N)=O)C(=O)N1)C(C)(C)C)C(N)=O [PSM-0447] ({DOTA}-[Aib]FCKR[Aib]NC[Tle]T-NH2; disulfide 3-8) | > 3160 nM |
| CC(=O)N[C@H](C(=O)NC(C)(C)C(=O)N[C@@H](Cc1ccc(O)cc1)C(=O)N[C@H]1CSSC[C@@H](C(=O)N[C@H](C(=O)N[C@H](C(=O)N[C@@H](CC(=O)O)C(N)=O)[C@@H](C)O)C(C)(C)C)NC(=O)[C@H](CC(N)=O)NC(=O)C(C)(C)NC(=O)[C@H](CCCNC(=N)N)NC(=O)[C@H](CCCCN)NC1=O)[C@@H](C)O [PSM-0488] (Ac-T[Aib]YCKR[Aib]NC[Tle]TD-NH2; disulfide 4-9) | < 200 nM |
| CC(=O)N[C@H](C(=O)NC(C)(C)C(=O)N[C@@H](Cc1ccccc1)C(=O)N[C@H]1CSSC[C@@H](C(=O)N[C@H](C(=O)N[C@H](C(=O)NCCCCCNC(=O)CN2CCN(CC(=O)O)CCN(CC(=O)O)CCN(CC(=O)O)CC2)[C@@H](C)O)C(C)(C)C)NC(=O)[C@H](CC(N)=O)NC(=O)C(C)(C)NC(=O)[C@H](CCCNC(=N)N)NC(=O)[C@H](CCCCN)NC1=O)[C@@H](C)O [PSM-0391] (Ac-T[Aib]FCKR[Aib]NC[Tle]T-{NH(CH2)5NHDOTA}; disulfide 4-9) | < 200 nM |

====

molecular target: Fc-fusion protein of human PSMA (hPSMA-Fc) (Homo sapiens, UniProt Q04609); construct: purchased Acro Biosystems PSA-H5264; assay: Surface plasmon resonance assay (Biacore T200, single cycle kinetic); assay type: binding; conditions: PSMA SPR assay, hPSMA-Fc, 25° C.; pKD category; read-out: pKD CAT (converted)
Sequence (Q04609 44-750 limits assumed): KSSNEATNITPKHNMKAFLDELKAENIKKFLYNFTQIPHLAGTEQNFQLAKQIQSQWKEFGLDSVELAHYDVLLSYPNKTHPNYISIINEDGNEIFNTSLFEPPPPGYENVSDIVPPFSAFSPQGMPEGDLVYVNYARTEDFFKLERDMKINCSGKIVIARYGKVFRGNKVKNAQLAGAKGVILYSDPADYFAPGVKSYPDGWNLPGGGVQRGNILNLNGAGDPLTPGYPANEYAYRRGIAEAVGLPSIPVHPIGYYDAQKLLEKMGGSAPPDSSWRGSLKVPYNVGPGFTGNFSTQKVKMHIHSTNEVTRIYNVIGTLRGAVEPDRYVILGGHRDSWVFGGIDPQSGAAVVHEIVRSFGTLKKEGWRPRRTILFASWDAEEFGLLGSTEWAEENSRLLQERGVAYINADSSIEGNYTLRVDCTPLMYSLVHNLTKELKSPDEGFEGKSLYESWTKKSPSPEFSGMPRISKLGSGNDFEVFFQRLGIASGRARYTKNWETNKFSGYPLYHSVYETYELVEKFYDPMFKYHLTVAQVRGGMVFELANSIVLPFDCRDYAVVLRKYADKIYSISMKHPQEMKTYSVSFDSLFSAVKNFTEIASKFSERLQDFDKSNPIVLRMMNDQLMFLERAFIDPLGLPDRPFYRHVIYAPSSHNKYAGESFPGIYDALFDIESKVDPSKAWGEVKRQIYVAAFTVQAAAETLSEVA
Numbered stars: 1 amine (or outer) side, 2 acyl side, 3 side chain; on linkers, the order of the positions; unused ones are H or OH. Bridge positions count the residues as written; N and C are the ends. Square brackets hold non-standard residues; d marks the D form. Peptide text beside a SMILES is read from it. * marks the point of attachment. DOTA = O=C(O)CN1CCN(CC(=O)O)CCN(CC(=O)*)CCN(CC(=O)O)CC1; Phe(4-Cl) = N[C@@H](Cc1ccc(Cl)cc1)C(=O)O; X1 = O=C(CC1CCN([*:1])CC1)[*:2]; Tle = CC(C)(C)[C@H](N)C(=O)O; NHCH2CH2NMe2 = CN(C)CCN*; Aib = CC(C)(N)C(=O)O
Overview of recorded Kd for various compounds

| Compound | Kd |
| --- | --- |
| C[C@@H](O)[C@H](NC(=O)CC1CCN(C(=O)CN2CCN(CC(=O)O)CCN(CC(=O)O)CCN(CC(=O)O)CC2)CC1)C(=O)NC(C)(C)C(=O)N[C@@H](Cc1ccccc1)C(=O)N[C@H]1CSSC[C@@H](C(=O)N[C@H](C(N)=O)C(C)(C)C)NC(=O)[C@H](CC(N)=O)NC(=O)C(C)(C)NC(=O)[C@H](CCCNC(=N)N)NC(=O)[C@H](CCCCN)NC1=O [PSM-0361] ({DOTA}-[X1]T[Aib]FCKR[Aib]NC[Tle]-NH2; disulfide 5-10) | < 12.6 nM |
| C[C@@H](O)[C@H](NC(=O)CC1CCN(C(=O)CN2CCN(CC(=O)O)CCN(CC(=O)O)CCN(CC(=O)O)CC2)CC1)C(=O)NC(C)(C)C(=O)N[C@@H](Cc1ccc(Cl)cc1)C(=O)N[C@H]1CSSC[C@@H](C(=O)N[C@H](C(=O)NCCN(C)C)C(C)(C)C)NC(=O)[C@H](CC(N)=O)NC(=O)C(C)(C)NC(=O)[C@H](CCCNC(=N)N)NC(=O)[C@H](CCCCN)NC1=O [PSM-0306] ({DOTA}-[X1]T[Aib][Phe(4-Cl)]CKR[Aib]NC[Tle]-NHCH2CH2NMe2; disulfide 5-10) | 12.6 to 126 nM |

Data provenance is patent US20260083865A1.
